Measured log10 of IC50 of individual entries
target: Serine/threonine-protein kinase B-raf (Homo sapiens, UniProt P15056, V600E); assay: Inhibition of B-Raf V600E mutant in human Malme-3M cells assessed as basal ERK phosphorylation; assay type: cell-based
Sequence (P15056 2-766 V600E limits assumed): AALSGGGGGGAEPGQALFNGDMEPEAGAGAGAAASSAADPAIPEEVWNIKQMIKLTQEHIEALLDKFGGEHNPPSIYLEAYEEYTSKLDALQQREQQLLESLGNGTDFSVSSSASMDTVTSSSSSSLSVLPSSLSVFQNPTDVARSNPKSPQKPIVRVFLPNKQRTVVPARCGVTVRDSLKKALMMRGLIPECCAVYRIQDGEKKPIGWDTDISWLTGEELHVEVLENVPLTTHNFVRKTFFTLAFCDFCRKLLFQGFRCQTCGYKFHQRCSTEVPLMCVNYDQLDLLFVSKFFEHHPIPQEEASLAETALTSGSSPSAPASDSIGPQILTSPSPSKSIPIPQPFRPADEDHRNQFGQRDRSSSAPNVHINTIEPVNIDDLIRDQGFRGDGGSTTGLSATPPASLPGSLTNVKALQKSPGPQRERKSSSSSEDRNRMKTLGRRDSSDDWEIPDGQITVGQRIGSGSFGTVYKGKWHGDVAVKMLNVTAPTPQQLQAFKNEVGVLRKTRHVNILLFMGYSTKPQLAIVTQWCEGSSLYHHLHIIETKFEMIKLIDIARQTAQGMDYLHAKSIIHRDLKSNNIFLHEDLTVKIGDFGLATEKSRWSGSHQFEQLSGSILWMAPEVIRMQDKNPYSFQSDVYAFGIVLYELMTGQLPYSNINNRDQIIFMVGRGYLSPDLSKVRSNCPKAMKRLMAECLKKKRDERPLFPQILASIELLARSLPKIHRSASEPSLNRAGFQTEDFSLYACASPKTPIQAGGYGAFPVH
metric: log10 of IC50 (log10 of the value in nM)

test smiles	test system	log10 of IC50
CCCS(=O)(=O)Nc1ccc(F)c(N(C)c2ccc3ncn(C)c(=O)c3c2)c1Cl	Serine/threonine-protein kinase B-raf (Homo sapiens, UniProt P15056, V600E)	2.06
CCCS(=O)(=O)Nc1ccc(F)c(Oc2ccc3ncn(C)c(=O)c3c2)c1C#N	Serine/threonine-protein kinase B-raf (Homo sapiens, UniProt P15056, V600E)	0.48
CCCS(=O)(=O)Nc1ccc(F)c(Nc2ccc3nccnc3c2)c1Cl	Serine/threonine-protein kinase B-raf (Homo sapiens, UniProt P15056, V600E)	2.91
CCCS(=O)(=O)Nc1ccc(F)c(Nc2ccc3ncnc(N(C)C)c3c2)c1Cl	Serine/threonine-protein kinase B-raf (Homo sapiens, UniProt P15056, V600E)	2.94
CCCS(=O)(=O)Nc1ccc(F)c(Nc2ccc3ncncc3c2)c1Cl	Serine/threonine-protein kinase B-raf (Homo sapiens, UniProt P15056, V600E)	1.64
CCCS(=O)(=O)Nc1ccc(Cl)c(Nc2ccc3ncn(C)c(=O)c3c2)c1C#N	Serine/threonine-protein kinase B-raf (Homo sapiens, UniProt P15056, V600E)	1.20
CCCS(=O)(=O)Nc1ccc(F)c(Nc2ccc3ncnc(OC)c3c2)c1Cl	Serine/threonine-protein kinase B-raf (Homo sapiens, UniProt P15056, V600E)	2.87
CCCS(=O)(=O)Nc1ccc(F)c(N(CC)c2ccc3ncn(C)c(=O)c3c2)c1Cl	Serine/threonine-protein kinase B-raf (Homo sapiens, UniProt P15056, V600E)	2.78
CCCS(=O)(=O)Nc1ccc(Cl)c(N(C)c2ccc3ncn(C)c(=O)c3c2)c1F	Serine/threonine-protein kinase B-raf (Homo sapiens, UniProt P15056, V600E)	1.92
CCCS(=O)(=O)Nc1ccc(F)c(N(CC)c2ccc3ncn(C)c(=O)c3c2)c1F	Serine/threonine-protein kinase B-raf (Homo sapiens, UniProt P15056, V600E)	2.04
CCCS(=O)(=O)Nc1cccc(Oc2ccc3ncn(C)c(=O)c3c2)c1C#N	Serine/threonine-protein kinase B-raf (Homo sapiens, UniProt P15056, V600E)	0.85
CCCS(=O)(=O)Nc1ccc(F)c(Nc2ccc3ncnc(NC)c3c2)c1Cl	Serine/threonine-protein kinase B-raf (Homo sapiens, UniProt P15056, V600E)	2.12

Each recorded value in this set is attributed to ChEMBL document CHEMBL3232845.
